experimentSummary: Plasma pharmacokinetics of capmatinib
Type: in vivo, human
statedConditions: human, plasma, oral
measurementName: Tmax (h)
Dear colleague, please return just the value in h, with no unit written.

The measured Tmax associated with CNC(=O)c1ccc(-c2cnc3ncc(Cc4ccc5ncccc5c4)n3n2)cc1F [capmatinib] reads 1

###

experimentSummary: Plasma pharmacokinetics of capmatinib
Assay type: in vivo, human
statedConditions: human, plasma, oral, 400 mg, Mean Cmax, 400 mg b.i.d., tablet group, day 15
measurementName: Cmax
Hi, when you answer, please include the unit after the number. Thanks!

The reported value for `CNC(=O)c1ccc(-c2cnc3ncc(Cc4ccc5ncccc5c4)n3n2)cc1F` in terms of Cmax is 7570 ng/mL
